Reported cGAS-100 nM: averaged IP-10 levels relative to ISD70 values for the following substances.
target: cGAS (Homo sapiens); test: ISD70-driven IP-10 (and IFN-β) production in THP-1 cells, ELISA; type: cell-based; design: endogenous in cells; host or cells: THP-1 (undifferentiated); details: THP-1; 100 nM ASO overnight, then ISD70 2.5 μg/ml 7-8 h; percentage of ISD70 only
Sequence (Q8N884 whole entry): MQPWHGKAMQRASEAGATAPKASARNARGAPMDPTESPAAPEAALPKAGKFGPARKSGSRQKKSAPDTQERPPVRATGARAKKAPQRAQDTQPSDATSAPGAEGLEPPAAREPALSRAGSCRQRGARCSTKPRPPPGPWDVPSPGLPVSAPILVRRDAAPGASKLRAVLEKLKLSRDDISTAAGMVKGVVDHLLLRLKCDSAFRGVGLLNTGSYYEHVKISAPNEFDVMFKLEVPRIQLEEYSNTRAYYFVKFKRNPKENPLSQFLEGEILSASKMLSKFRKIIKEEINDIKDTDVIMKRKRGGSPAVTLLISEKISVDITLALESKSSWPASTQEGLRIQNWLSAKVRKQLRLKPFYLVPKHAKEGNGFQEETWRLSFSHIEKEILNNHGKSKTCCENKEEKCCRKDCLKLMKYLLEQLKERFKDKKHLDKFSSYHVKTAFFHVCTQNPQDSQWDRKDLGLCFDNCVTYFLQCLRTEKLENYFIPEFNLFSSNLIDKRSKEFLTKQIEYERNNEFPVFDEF
In the oligonucleotide strings, read from the 5' end, every base follows the letter of its sugar. An asterisk marks phosphorothioate; unmarked linkages are phosphodiester. Other units and linkages are bracketed, terminal groups are in braces. A string of capitals states the bases alone. d = 2'-deoxy (DNA); m = 2'-O-methyl
Reply numerically in %, unit not repeated.

- substance: "mG*mC*mG*mU*mA*G*T*T*T*C*T*C*T*T*C*mC*mU*mC*mC*mC (GCGUAGTTTCTCTTCCUCCC; sugars from the 5' end m5 d10 m5, all phosphorothioate, methylation of C not given here) [[LINC-PINT]935 KL]"
  observed: 50.62

Challenge: Quick one: cGAS-100 nM: averaged IP-10 levels relative to ISD70 of mC*mA*mG*mU*mC*T*C*C*A*T*G*T*C*C*C*mA*mG*mG*mC*mC (mC*mA*mG*mU*mC*dT*dC*dC*dA*dT*dG*dT*dC*dC*dC*mA*mG*mG*mC*mC; antisense) [[CDKN2B-AS1]2233] ?
Response given: 75.92

Challenge: What does the data say about its cGAS-100 nM: averaged IP-10 levels relative to ISD70? Entry: mC*mC*mC*mU*mA*A*T*G*C*T*T*T*C*C*T*mC*mU*mC*mC*mA (mC*mC*mC*mU*mA*dA*dT*dG*dC*dT*dT*dT*dC*dC*dT*mC*mU*mC*mC*mA; antisense) [[LINC-PINT1877 KL]
Response given: 89.09

Challenge: Fill in: cGAS-100 nM: averaged IP-10 levels relative to ISD70 of mC*mU*mU*mU*mA*T*A*T*T*A*C*A*A*A*G*mC*mU*mA*mC*mU (mC*mU*mU*mU*mA*dT*dA*dT*dT*dA*dC*dA*dA*dA*dG*mC*mU*mA*mC*mU; antisense) [[LINC-PINT]2755] is ___
Response given: 92.54

Challenge: If you can, please state the reported cGAS-100 nM: averaged IP-10 levels relative to ISD70 value of mA*mA*mG*mA*mU*T*A*T*C*T*T*C*T*T*T*mU*mA*mA*mU*mU (mA*mA*mG*mA*mU*dT*dA*dT*dC*dT*dT*dC*dT*dT*dT*mU*mA*mA*mU*mU) [[CDKN2B-AS1]2131] .
Response given: 73.50

Challenge: // cGAS-100 nM: averaged IP-10 levels relative to ISD70 lookup, key: mU*mG*mG*mC*mG*T*A*G*T*T*T*C*T*C*T*mU*mC*mC*mU*mC (mU*mG*mG*mC*mG*dT*dA*dG*dT*dT*dT*dC*dT*dC*dT*mU*mC*mC*mU*mC; antisense) [[LINC-PINT]937.1]
Response given: 70.97

Challenge: I am curious: what cGAS-100 nM: averaged IP-10 levels relative to ISD70 value has been reported for mG*mA*mA*mA*mA*G*A*T*T*A*T*C*T*T*C*mU*mU*mU*mU*mA (GAAAAGATTATCTTCUUUUA; sugars from the 5' end m5 d10 m5, all phosphorothioate, methylation of C not given here) [[CDKN2B-AS1]2134] ?
Response given: 51.49

Challenge: Data request, read-out cGAS-100 nM: averaged IP-10 levels relative to ISD70, for mG*mG*mU*mC*mU*C*C*T*C*C*A*C*A*C*C*mC*mU*mU*mC*mU (mG*mG*mU*mC*mU*dC*dC*dT*dC*dC*dA*dC*dA*dC*dC*mC*mU*mU*mC*mU; antisense) [[LINC-PINT]127]
Response given: 36.95

Challenge: Which measured cGAS-100 nM: averaged IP-10 levels relative to ISD70 value corresponds to mU*mC*mU*mC*mU*G*G*T*C*C*C*A*T*C*C*mC*mU*mU*mC*mU (UCUCUGGTCCCATCCCUUCU; antisense; sugars from the 5' end m5 d10 m5, all phosphorothioate, methylation of C not given here) [[LINC-PINT]108] ?
Response given: 104.65
